# Test system: 565726-208-R1-J5-PDC complex spheroids, growth inhibition
# Assay details: Anticancer human tumor 565726-208-R1-J5-PDC patient-derived pancreatic adenocarcinoma cell line growth inhibition [RAS]; active = viability on the fitted dose curve at most 10% of control; inactive = the rest
# Settings: second compound 0.03 µM; first compound 0.3 µM
Possible outcomes: Y (active), N (inactive)

Compound	Category
CC1(C)CCC(Nc2ncc(C(F)(F)F)c(-c3c[nH]c4c(P(C)(C)=O)c(C#N)ccc34)n2)CN1 (centres undefined) + CCn1c(-c2cccnc2C(C)OC)c2c3cc(ccc31)N1CCOC(CC(NC(=O)C(C(C)C)N(C)C(=O)C3(F)CCN(C(=O)C#CC(C)(C)N(C)C)CC3)C(=O)N3CCCC(N3)C(=O)OCC(C)(C)C2)C1	N
CC1(C)CCC(Nc2ncc(C(F)(F)F)c(-c3c[nH]c4c(P(C)(C)=O)c(C#N)ccc34)n2)CN1 (centres undefined) + CCn1c(-c2cc(N3CCN(C)CC3)cnc2C(C)OC)c2c3cc(ccc31)-c1csc(n1)CC(NC(=O)C1CC1C)C(=O)N1CCCC(N1)C(=O)OCC(C)(C)C2	N
CCc1c2c(nc3ccc(O)cc13)-c1cc3c(c(=O)n1C2)COC(=O)[C@]3(O)CC + CCn1c(-c2cc(N3CCN(C)CC3)cnc2C(C)OC)c2c3cc(ccc31)-c1csc(n1)CC(NC(=O)C1CC1C)C(=O)N1CCCC(N1)C(=O)OCC(C)(C)C2	Y
CCc1c2c(nc3ccc(O)cc13)-c1cc3c(c(=O)n1C2)COC(=O)[C@]3(O)CC + CCn1c(-c2cccnc2C(C)OC)c2c3cc(ccc31)N1CCOC(CC(NC(=O)C(C(C)C)N(C)C(=O)C3(F)CCN(C(=O)C#CC(C)(C)N(C)C)CC3)C(=O)N3CCCC(N3)C(=O)OCC(C)(C)C2)C1	Y

* * *

# Test system: 565726-208-R1-J5-PDC complex spheroids, growth inhibition
# Assay details: Anticancer human tumor 565726-208-R1-J5-PDC cell line growth inhibition [RAS];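 note: spheroids exposed to compounds for seven days before readout; 100% = DMSO vehicle control viability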
# Settings: second compound 0.1 µM; first compound 0.00316 µM; stronger effect = lower value

Compound	viability, T/C (%)
Nc1ccn(C2OC(CO)C(O)C2(F)F)c(=O)n1 (stereo not given) + C#Cc1c(F)ccc2cc(O)cc(-c3ncc4c(N5CC6CCC(C5)N6)nc(OCC56CCCN5CC(F)C6)nc4c3F)c12	112
CCN1CCN(Cc2ccc(Nc3ncc(F)c(-c4cc(F)c5nc(C)n(C(C)C)c5c4)n3)nc2)CC1 + C#Cc1c(F)ccc2cc(O)cc(-c3ncc4c(N5CC6CCC(C5)N6)nc(OCC56CCCN5CC(F)C6)nc4c3F)c12	109
O=C(c1ccc(F)c(F)c1Nc1ccc(I)cc1F)N1CC(O)([C@@H]2CCCCN2)C1 + C=CC(=O)N1CCN(c2nc(OCC3CCCN3C)nc3c(F)c(-c4nc(N)cc(C)c4C(F)(F)F)c(Cl)cc23)C(C)C1	138
Nc1ccn(C2OC(CO)C(O)C2(F)F)c(=O)n1 (stereo not given) + C=CC(=O)N1CCN(c2nc(OCC3CCCN3C)nc3c(F)c(-c4nc(N)cc(C)c4C(F)(F)F)c(Cl)cc23)C(C)C1	156
C=CC(=O)Nc1cc(Nc2nccc(-c3cn(C)c4ccccc34)n2)c(OC)cc1N(C)CCN(C)C + C=CC(=O)N1CCN(c2nc(OCC3CCCN3C)nc3c(F)c(-c4nc(N)cc(C)c4C(F)(F)F)c(Cl)cc23)C(C)C1	135

* * *

# System: 565726-208-R1-J5-PDC complex spheroids, growth inhibition
# Assay details: Anticancer human tumor 565726-208-R1-J5-PDC cell line growth inhibition [RAS]; active = viability on the fitted dose curve at most 10% of control; inactive = the rest;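 note: spheroids exposed to compounds for seven days before readout; 100% = DMSO vehicle control viability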
# Settings: second compound 0.000949 µM; first compound 1 µM
Possible outcomes: Y = active, N = inactive

Compound	Target	Category
Nc1ccn(C2OC(CO)C(O)C2(F)F)c(=O)n1 (stereo not given) + CCn1c(-c2cc(N3CCN(C)CC3)cnc2C(C)OC)c2c3cc(ccc31)-c1csc(n1)CC(NC(=O)C1CC1C)C(=O)N1CCCC(N1)C(=O)OCC(C)(C)C2	565726-208-R1-J5-PDC complex spheroids, growth inhibition	N
C=CC(=O)Nc1cc(Nc2nccc(-c3cn(C)c4ccccc34)n2)c(OC)cc1N(C)CCN(C)C + CCn1c(-c2cc(N3CCN(C)CC3)cnc2C(C)OC)c2c3cc(ccc31)-c1csc(n1)CC(NC(=O)C1CC1C)C(=O)N1CCCC(N1)C(=O)OCC(C)(C)C2	565726-208-R1-J5-PDC complex spheroids, growth inhibition	N
O=C(c1ccc(F)c(F)c1Nc1ccc(I)cc1F)N1CC(O)([C@@H]2CCCCN2)C1 + CCn1c(-c2cc(N3CCN(C)CC3)cnc2C(C)OC)c2c3cc(ccc31)-c1csc(n1)CC(NC(=O)C1CC1C)C(=O)N1CCCC(N1)C(=O)OCC(C)(C)C2	565726-208-R1-J5-PDC complex spheroids, growth inhibition	Y
CC(Nc1ccc2c(c1)OCCn1cc(N3C(=O)OCC3C(F)F)nc1-2)C(N)=O (stereo not given) + CCn1c(-c2cccnc2C(C)OC)c2c3cc(ccc31)N1CCOC(CC(NC(=O)C(C(C)C)N(C)C(=O)C3(F)CCN(C(=O)C#CC(C)(C)N(C)C)CC3)C(=O)N3CCCC(N3)C(=O)OCC(C)(C)C2)C1	565726-208-R1-J5-PDC complex spheroids, growth inhibition	N
C=CC(=O)N1CCN(c2nc(OCC3CCCN3C)nc3c(F)c(-c4nc(N)cc(C)c4C(F)(F)F)c(Cl)cc23)C(C)C1 (stereo not given) + CCn1c(-c2cccnc2C(C)OC)c2c3cc(ccc31)N1CCOC(CC(NC(=O)C(C(C)C)N(C)C(=O)C3(F)CCN(C(=O)C#CC(C)(C)N(C)C)CC3)C(=O)N3CCCC(N3)C(=O)OCC(C)(C)C2)C1	565726-208-R1-J5-PDC complex spheroids, growth inhibition	N
CCC(CC)c1cc(NC2CCC(N)C2)n2nccc2n1 (stereo not given) + CCn1c(-c2cc(N3CCN(C)CC3)cnc2C(C)OC)c2c3cc(ccc31)-c1csc(n1)CC(NC(=O)C1CC1C)C(=O)N1CCCC(N1)C(=O)OCC(C)(C)C2	565726-208-R1-J5-PDC complex spheroids, growth inhibition	N
Cc1nc(N2CCC3(CC2)COC(C)C3N)c(CO)nc1Sc1ccnc(N)c1Cl (stereo not given) + CCn1c(-c2cc(N3CCN(C)CC3)cnc2C(C)OC)c2c3cc(ccc31)-c1csc(n1)CC(NC(=O)C1CC1C)C(=O)N1CCCC(N1)C(=O)OCC(C)(C)C2	565726-208-R1-J5-PDC complex spheroids, growth inhibition	N
CCN1CCN(Cc2ccc(Nc3ncc(F)c(-c4cc(F)c5nc(C)n(C(C)C)c5c4)n3)nc2)CC1 + CCn1c(-c2cc(N3CCN(C)CC3)cnc2C(C)OC)c2c3cc(ccc31)-c1csc(n1)CC(NC(=O)C1CC1C)C(=O)N1CCCC(N1)C(=O)OCC(C)(C)C2	565726-208-R1-J5-PDC complex spheroids, growth inhibition	N
Cc1nc(N2CCC3(CC2)COC(C)C3N)c(CO)nc1Sc1ccnc(N)c1Cl (stereo not given) + CCn1c(-c2cccnc2C(C)OC)c2c3cc(ccc31)N1CCOC(CC(NC(=O)C(C(C)C)N(C)C(=O)C3(F)CCN(C(=O)C#CC(C)(C)N(C)C)CC3)C(=O)N3CCCC(N3)C(=O)OCC(C)(C)C2)C1	565726-208-R1-J5-PDC complex spheroids, growth inhibition	N
CC1(O)CCCC1n1c(=O)c(C(F)F)cc2cnc(NC3CCN(S(C)(=O)=O)CC3)nc21 (stereo not given) + CCn1c(-c2cccnc2C(C)OC)c2c3cc(ccc31)N1CCOC(CC(NC(=O)C(C(C)C)N(C)C(=O)C3(F)CCN(C(=O)C#CC(C)(C)N(C)C)CC3)C(=O)N3CCCC(N3)C(=O)OCC(C)(C)C2)C1	565726-208-R1-J5-PDC complex spheroids, growth inhibition	N
O=C(c1ccc(F)c(F)c1Nc1ccc(I)cc1F)N1CC(O)([C@@H]2CCCCN2)C1 + CCn1c(-c2cccnc2C(C)OC)c2c3cc(ccc31)N1CCOC(CC(NC(=O)C(C(C)C)N(C)C(=O)C3(F)CCN(C(=O)C#CC(C)(C)N(C)C)CC3)C(=O)N3CCCC(N3)C(=O)OCC(C)(C)C2)C1	565726-208-R1-J5-PDC complex spheroids, growth inhibition	N
NC1c2ccccc2OC12CCN(c1cnc3c(N4CCCc5ncccc54)n[nH]c3n1)CC2 (stereo not given) + CCn1c(-c2cc(N3CCN(C)CC3)cnc2C(C)OC)c2c3cc(ccc31)-c1csc(n1)CC(NC(=O)C1CC1C)C(=O)N1CCCC(N1)C(=O)OCC(C)(C)C2	565726-208-R1-J5-PDC complex spheroids, growth inhibition	N
Nc1ccn(C2OC(CO)C(O)C2(F)F)c(=O)n1 (stereo not given) + CCn1c(-c2cccnc2C(C)OC)c2c3cc(ccc31)N1CCOC(CC(NC(=O)C(C(C)C)N(C)C(=O)C3(F)CCN(C(=O)C#CC(C)(C)N(C)C)CC3)C(=O)N3CCCC(N3)C(=O)OCC(C)(C)C2)C1	565726-208-R1-J5-PDC complex spheroids, growth inhibition	N
C=CC(=O)Nc1cc(Nc2nccc(-c3cn(C)c4ccccc34)n2)c(OC)cc1N(C)CCN(C)C + CCn1c(-c2cccnc2C(C)OC)c2c3cc(ccc31)N1CCOC(CC(NC(=O)C(C(C)C)N(C)C(=O)C3(F)CCN(C(=O)C#CC(C)(C)N(C)C)CC3)C(=O)N3CCCC(N3)C(=O)OCC(C)(C)C2)C1	565726-208-R1-J5-PDC complex spheroids, growth inhibition	N
C[C@@H](NC(=O)c1ncnc(N)c1Cl)c1ncc(C(=O)Nc2cc(C(F)(F)F)c(Cl)cn2)s1 + CCn1c(-c2cc(N3CCN(C)CC3)cnc2C(C)OC)c2c3cc(ccc31)-c1csc(n1)CC(NC(=O)C1CC1C)C(=O)N1CCCC(N1)C(=O)OCC(C)(C)C2	565726-208-R1-J5-PDC complex spheroids, growth inhibition	N
